Entry source: the supplement of paper PMC9112550

system: Escherichia coli TOP10; experiment: shrunken log2 fold change of peptide-encoding DNA abundance (4.5 h post-induction vs induction); higher = less antimicrobial activity (less host growth inhibition); conditions: time post-induction: 4.5 h; library: site-saturation at positions 5, 18, 19, 20
Attribute measured: shrunken log2 fold change
Give only the figure.

Observe how each entry below is paired with its result.
RRIRWRPPRLPRPRPRPRSQPRP	0.434
RRIRDRPPRLPRPRPRPLHQPRP	0.302
RRIRDRPPRLPRPRPRPKERPRP	-0.0193

q: Name the recorded shrunken log2 fold change for `RRIRKRPPRLPRPRPRPVKVPRP` .
a: 0.432

q: Proceed to `RRIRSRPPRLPRPRPRPHCIPRP`
a: 0.021

q: Check `RRIRDRPPRLPRPRPRPWAEPRP` too.
a: 0.302

q: Subsequent entry: `RRIRCRPPRLPRPRPRPCPAPRP`
a: -0.178

q: Do the same for `RRIRIRPPRLPRPRPRPYVLPRP` please
a: -0.588

q: Proceed to `RRIRSRPPRLPRPRPRPRWLPRP`
a: 0.297

q: `RRIRLRPPRLPRPRPRPMFIPRP` ?
a: -0.734

q: Okay, and `RRIRERPPRLPRPRPRPMMTPRP` ?
a: -0.067

q: `RRIRGRPPRLPRPRPRPGYMPRP` ?
a: -0.0736

q: Same read-out for `RRIRDRPPRLPRPRPRPQAQPRP` ?
a: -0.0247

q: How about this sequence: `RRIRWRPPRLPRPRPRPSRGPRP`
a: 0.532

q: Consider next the sequence `RRIRRRPPRLPRPRPRPMSHPRP` in the same way.
a: 0.142

q: // query: `RRIRERPPRLPRPRPRPTPPPRP`
a: 0.491

q: Do the same for `RRIRTRPPRLPRPRPRPDGWPRP` please
a: 0.468

q: What would you report for `RRIRGRPPRLPRPRPRPKPAPRP` ?
a: 1.42

q: Try this sequence next: `RRIRWRPPRLPRPRPRPVELPRP`
a: -0.00876

q: Now give it for `RRIRKRPPRLPRPRPRPALEPRP` too.
a: -0.108

* * *

test system: Escherichia coli TOP10; assay: shrunken log2 fold change of peptide-encoding DNA abundance (4.5 h post-induction vs induction); higher = less antimicrobial activity (less host growth inhibition); details: time post-induction: 4.5 h; library: site-saturation at positions 5, 18, 19, 20
Each item that follows carries a reported shrunken log2 fold change.
// keep it numeric: no unit symbol after the value

Observe how each entry below is paired with its result.
RRIRYRPPRLPRPRPRPPCIPRP	-0.583
RRIRSRPPRLPRPRPRPCHMPRP	-0.233
RRIRARPPRLPRPRPRPARGPRP	0.774
RRIRLRPPRLPRPRPRPTNWPRP	0.0175
RRIRQRPPRLPRPRPRPLPAPRP	0.214

q: Form entry - test system: Escherichia coli TOP10; read-out: shrunken log2 fold change; sequence: `RRIRARPPRLPRPRPRPTFNPRP`
a: 0.0685

q: Same for `RRIRERPPRLPRPRPRPHSSPRP`
a: -0.0464

q: `RRIRLRPPRLPRPRPRPILAPRP` , same question.
a: -0.0814

q: And for `RRIRKRPPRLPRPRPRPWLMPRP` ?
a: 0.0931

q: Again, but for `RRIRQRPPRLPRPRPRPCICPRP`
a: -0.542

q: Param item: `RRIRYRPPRLPRPRPRPRAFPRP`
a: -0.677

* * *

test system: Escherichia coli TOP10; test: shrunken log2 fold change of peptide-encoding DNA abundance (4.5 h post-induction vs induction); higher = less antimicrobial activity (less host growth inhibition); settings: time post-induction: 4.5 h; library: site-saturation at positions 5, 18, 19, 20
Listed next: entries and their corresponding shrunken log2 fold change.
Write the number on its own, no unit after it.

Observe how each entry below is paired with its result.
RRIRVRPPRLPRPRPRPYLTPRP	-0.575
RRIRPRPPRLPRPRPRPIRLPRP	0.0338
RRIRQRPPRLPRPRPRPICLPRP	0.144

q: Which shrunken log2 fold change is reported for this sequence? `RRIRYRPPRLPRPRPRPNDSPRP`
a: -0.349

q: Now consider `RRIRIRPPRLPRPRPRPKWQPRP` and answer again.
a: -0.114

q: Check `RRIRSRPPRLPRPRPRPNTDPRP` too.
a: -0.442

q: Then this sequence: `RRIRQRPPRLPRPRPRPESGPRP`
a: 0.0279

q: Can you check `RRIRMRPPRLPRPRPRPMDMPRP` next?
a: 0.482

q: Next record, please: `RRIRGRPPRLPRPRPRPRHHPRP`
a: 2.5

* * *

system: Escherichia coli TOP10; assay: shrunken log2 fold change of peptide-encoding DNA abundance (4.5 h post-induction vs induction); higher = less antimicrobial activity (less host growth inhibition); conditions: time post-induction: 4.5 h; library: site-saturation at positions 5, 18, 19, 20
# thresholds on shrunken log2 fold change define classes: low interval = under -0.5, middle interval = from -0.5 up to 0.1, high interval = 0.1 and over

Worked cases, answers included:
RRIRMRPPRLPRPRPRPSWSPRP	high interval
RRIRSRPPRLPRPRPRPAYDPRP	middle interval
RRIRCRPPRLPRPRPRPCCLPRP	middle interval
RRIRIRPPRLPRPRPRPTMFPRP	low interval
RRIRLRPPRLPRPRPRPSIQPRP	low interval
RRIRDRPPRLPRPRPRPQYQPRP	middle interval

q: Returns: class label. Input: `RRIRYRPPRLPRPRPRPGTYPRP`
a: middle interval

q: Similarly, `RRIRSRPPRLPRPRPRPEPSPRP` ?
a: high interval

* * *

shrunken log2 fold change listing for selected sequences.
system: Escherichia coli TOP10; assay: shrunken log2 fold change of peptide-encoding DNA abundance (4.5 h post-induction vs induction); higher = less antimicrobial activity (less host growth inhibition); details: time post-induction: 4.5 h; library: site-saturation at positions 5, 18, 19, 20
Number only, please.

Please review the entries below; each comes with its answer.
RRIRYRPPRLPRPRPRPQQDPRP	-0.0899
RRIRRRPPRLPRPRPRPGHMPRP	0.101
RRIRNRPPRLPRPRPRPDLKPRP	0.0748
RRIRRRPPRLPRPRPRPTLWPRP	0.563

// next entry
q: Item `RRIRQRPPRLPRPRPRPNNYPRP` has what recorded shrunken log2 fold change?
a: -0.53

* * *

tested on: Escherichia coli TOP10; assay: shrunken log2 fold change of peptide-encoding DNA abundance (4.5 h post-induction vs induction); higher = less antimicrobial activity (less host growth inhibition); settings: time post-induction: 4.5 h; library: site-saturation at positions 5, 18, 19, 20
Values of shrunken log2 fold change greater than or equal to 0.05 map to criterion met; values below map to criterion not met.

Reference set, count: 3
RRIRFRPPRLPRPRPRPSMMPRP	criterion not met
RRIRPRPPRLPRPRPRPKALPRP	criterion met
RRIRFRPPRLPRPRPRPSQRPRP	criterion met

q: Could you please find out whether `RRIRGRPPRLPRPRPRPMSSPRP` has shrunken log2 fold change that meets 0.05 or exceeds it?
a: criterion not met

q: Could you do the same for `RRIRHRPPRLPRPRPRPPWIPRP` , please?
a: criterion not met

q: Let us now turn to `RRIRCRPPRLPRPRPRPVCSPRP`
a: criterion not met

q: Do the same for `RRIRWRPPRLPRPRPRPIYMPRP` please
a: criterion not met

* * *

# shrunken log2 fold change per record follows
test system: Escherichia coli TOP10; experiment: shrunken log2 fold change of peptide-encoding DNA abundance (4.5 h post-induction vs induction); higher = less antimicrobial activity (less host growth inhibition); details: time post-induction: 4.5 h; library: site-saturation at positions 5, 18, 19, 20
Give the value as a plain number.

RRIRERPPRLPRPRPRPPQYPRP	-0.517
RRIRERPPRLPRPRPRPSVGPRP	0.0861
RRIRGRPPRLPRPRPRPASGPRP	0.625
RRIRPRPPRLPRPRPRPRVPPRP	0.342
RRIRDRPPRLPRPRPRPHLYPRP	0.0039
RRIRVRPPRLPRPRPRPMVIPRP	0.0224
RRIRTRPPRLPRPRPRPPYFPRP	0.202
RRIRERPPRLPRPRPRPWHTPRP	-0.16
RRIRPRPPRLPRPRPRPCMLPRP	-0.663
RRIRKRPPRLPRPRPRPCCKPRP	0.099

q: Endpoint output: shrunken log2 fold change of `RRIRFRPPRLPRPRPRPTNMPRP` . Value?
a: -0.712

q: Moving on to `RRIRLRPPRLPRPRPRPMKFPRP`
a: 0.0807

* * *

tested on: Escherichia coli TOP10; assay: shrunken log2 fold change of peptide-encoding DNA abundance (4.5 h post-induction vs induction); higher = less antimicrobial activity (less host growth inhibition); conditions: time post-induction: 4.5 h; library: site-saturation at positions 5, 18, 19, 20;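 also: peptides expressed intracellularly from a pBAD plasmid library in pooled LB shake-flask culture, induced with 0.3% L-arabinose, DNA abundance read by NGS, three biological replicates, DESeq2 with apeglm shrinkage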
# shrunken log2 fold change values compiled below
Answer with a bare number; do not write a unit.

RRIRLRPPRLPRPRPRPCGRPRP	0.147
RRIRFRPPRLPRPRPRPWPIPRP	-0.0205
RRIRIRPPRLPRPRPRPNTNPRP	-0.905
RRIRPRPPRLPRPRPRPQWNPRP	0.36
RRIRQRPPRLPRPRPRPQNIPRP	-0.882
RRIRYRPPRLPRPRPRPHWRPRP	-0.0836
RRIRGRPPRLPRPRPRPIRHPRP	0.0519
RRIRWRPPRLPRPRPRPAVKPRP	-0.197

q: Any idea what shrunken log2 fold change was measured for `RRIRWRPPRLPRPRPRPQGLPRP` ?
a: 0.00602

q: Entry to check: `RRIRARPPRLPRPRPRPYHMPRP`
a: 0.00865
